Reference source for all entries: PubChem BioAssay (NCI)

This listing pairs compounds with measured TGI.
tested on: CAKI-1 renal; test: NCI tumour cell line growth inhibition, 48 h
quantity measured: TGI

                              record_smiles  obs_value
0         CCCCCCCCCc1cc(=O)c2c(O)cc(O)cc2o1   > 100 µM
1    O=C(O)c1ccc(C2=Nc3cccc4cccc(c34)N2)cc1   > 100 µM
2  CN1CCC(n2cnc(-c3ccc(F)cc3)c2-c2ccnc(Nc3ccccc3)n2)CC1  > 15.3 µM
3               NC(=O)/C=C/c1c[nH]c2nccnc12   > 100 µM
4  COc1ccc(C(=O)c2cc(C)c(OC)c(C)c2)c(OC)c1OC(=O)C(Cl)Cl   > 100 µM
